experimentalTarget: HCV genotype 1b (BK) NS3 modified enzyme with a R155K mutation (Hepatitis C virus genotype 1b, UniProt P26663, R1181K)
Construct: HCV genotype 1b (BK) NS3 modified enzyme
procedureSummary: HCV NS3 protease time-resolved fluorescence (TRF) assay, genotype 1b R155K
Type: biochemical
details: Ki 1b R155K, genotype 1b (BK) NS3 R155K; single value
Description: The HCV NS3 protease inhibitory activity of the present compounds may be tested using assays known in the art. One such assay is HCV NS3 protease time-resolved fluorescence (TRF) assay as described below and in International Patent Application Publication No. WO2006/102087. […] Product fluorescence is detected using either a VICTOR V2 or FUSION fluorophotometer (Perkin Elmer Life and Analytical Sciences) with excitation at 340 nm and emission at 615 nm with a 400 μs delay. […]
reportedMetric: Ki (nM)
Give a bare numeral; the unit nM is implied.

I am curious: what Ki value has been reported for "C=C[C@@H]1C[C@]1(NC(=O)[C@@H]1C[C@@H]2CN1C(=O)[C@H](C1CCCC1)NC(=O)O[C@@H]1CCC[C@H]1CC/C=C/Cc1c(nc3cccc(Cl)c3c1OC)O2)C(=O)NS(=O)(=O)C1CC1" ?
0.19

Look up Ki: "C=C[C@@H]1C[C@]1(NC(=O)[C@@H]1C[C@@H]2CN1C(=O)[C@H](C(C)(C)C)NC(=O)O[C@@H]1C[C@H]1CCCCCc1c(nc3cc(C)ccc3c1OCCCNC1CC1)O2)C(=O)NS(=O)(=O)C1(C)CC1"
0.079

Fill in the blank: the reported Ki of "C=C[C@@H]1C[C@]1(NC(=O)[C@@H]1C[C@@H]2CN1C(=O)[C@H](C1CCCCC1)NC(=O)O[C@@H]1C[C@H]1CCCCCc1c(nc3ccccc3c1OCCN1CCOCC1)O2)C(=O)NS(=O)(=O)C1(C)CC1" is ____.
0.33

What does the record list as Ki for "C=C[C@@H]1C[C@]1(NC(=O)[C@@H]1C[C@@H]2CN1C(=O)[C@H](C(C)(C)C)NC(=O)O[C@@H]1C[C@H]1CCCCCc1c(nc3cc(F)ccc3c1OCCCN1CCOCC1)O2)C(=O)NS(=O)(=O)C1(C)CC1" ?
0.25

Which measured Ki value corresponds to "C=C[C@@H]1C[C@]1(NC(=O)[C@@H]1C[C@@H]2CN1C(=O)[C@H](C(C)(C)C)NC(=O)O[C@@H]1C[C@H]1CCCCCc1c(nc3c(OC)cccc3c1OCCCN1CCCC1)O2)C(=O)NS(=O)(=O)C1(C)CC1" ?
0.059

State the recorded Ki for this entry: "C=C[C@@H]1C[C@]1(NC(=O)[C@@H]1C[C@@H]2CN1C(=O)[C@H](C1CCCC1)NC(=O)O[C@@H]1CCC[C@H]1CC/C=C/Cc1c(nc3ccccc3c1OCCN1CCOC1=O)O2)C(=O)NS(=O)(=O)C1CC1"
0.073

State the recorded Ki for this entry: "C=C[C@@H]1C[C@]1(NC(=O)[C@@H]1C[C@@H]2CN1C(=O)[C@H](C1CCCC1)NC(=O)O[C@]1(C)CCC[C@H]1CC/C=C/Cc1c(nc3ccccc3c1OCc1ccccc1)O2)C(=O)NS(=O)(=O)C1CC1"
0.81

====

Provide the recorded Ki for the entries that follow.
experimentalTarget: HCV genotype 1b (BK) NS3 modified enzyme with a R155K mutation (Hepatitis C virus genotype 1b, UniProt P26663, R1181K)
Construct: HCV genotype 1b (BK) NS3 modified enzyme
procedureSummary: HCV NS3 protease time-resolved fluorescence (TRF) assay, genotype 1b R155K
Type: biochemical
details: Ki 1b R155K, first of two values printed in the cell (not explained)
Please give a number only; it is taken to be in pM.

What Ki value was documented for this compound, C=C[C@@H]1C[C@]1(NC(=O)[C@@H]1C[C@@H]2CN1C(=O)[C@H](C1CCCCC1)NC(=O)O[C@@H]1C[C@H]1CCCCCc1c(nc3ccccc3c1OC1CCOCC1)O2)C(=O)NS(=O)(=O)C1(C)CC1 [Example 253] ?
26

What does the record list as Ki for C=C[C@@H]1C[C@]1(NC(=O)[C@@H]1C[C@@H]2CN1C(=O)[C@H](C1CCCCC1)NC(=O)O[C@@H]1C[C@H]1CCCCCc1c(nc3ccccc3c1OCCCN1CC(F)(F)C1)O2)C(=O)NS(=O)(=O)C1(C)CC1 [Example 249] ?
26

// Ki lookup, key: C=C[C@@H]1C[C@]1(NC(=O)[C@@H]1C[C@@H]2CN1C(=O)[C@H](C(C)(C)C)NC(=O)O[C@@H]1C[C@H]1CCCCCc1c(nc3ccccc3c1OC1CC3CCC(C1)N3C(=O)OC(C)(C)C)O2)C(=O)NS(=O)(=O)C1(C)CC1 (single isomer, unassigned) [Example 273]
100

Bench note: what Ki did C=C[C@@H]1C[C@]1(NC(=O)[C@@H]1C[C@@H]2CN1C(=O)[C@H](C(C)(C)C)NC(=O)O[C@@H]1C[C@H]1CCCCCc1c(nc3ccccc3c1OC1CC3CCC(C1)N3CC)O2)C(=O)NS(=O)(=O)C1(C)CC1 (single isomer, unassigned) [Example 281] show?
16

What value of measured Ki is listed for C=C[C@@H]1C[C@]1(NC(=O)[C@@H]1C[C@@H]2CN1C(=O)[C@H](C1(C)CCCCC1)NC(=O)O[C@@H]1C[C@H]1CCCCCc1c(nc3ccccc3c1OC1CCN(C(=O)OC(C)(C)C)CC1)O2)C(=O)NS(=O)(=O)C1(C)CC1 [Example 267] ?
114

I have this compound here, C=C[C@@H]1CC1(NC(=O)[C@@H]1C[C@@H]2CN1C(=O)[C@H](C1CCOCC1)NC(=O)O[C@@H]1C[C@H]1CCCCCc1c(nc3ccccc3c1OC1CCN(C)CC1)O2)C(=O)NS(=O)(=O)C1(C)CC1 (stereo partly drawn) [Example 252] , and I need its recorded Ki.
9

====

Exercise: for every item that follows, state its recorded Ki.
experimentalTarget: HCV NS3 protease genotype 3a (3A-1) (Hepatitis C virus genotype 3a, UniProt Q81258)
procedureSummary: HCV NS3 protease time-resolved fluorescence (TRF) assay, genotype 3a
Format: biochemical
details: Ki 3a
Write the figure, then the unit, nothing else.

What Ki value was documented for this compound, C=C[C@@H]1C[C@]1(NC(=O)[C@@H]1C[C@@H]2CN1C(=O)[C@H](C(C)(C)C)NC(=O)O[C@@H]1C[C@H]1CCCCCc1c(nc3ccccc3c1OCC1CCCN(CC)C1)O2)C(=O)NS(=O)(=O)C1(C)CC1 (some centres unmarked) ?
0.38 nM

Any idea what Ki was measured for "C=C[C@@H]1C[C@]1(NC(=O)[C@@H]1C[C@@H]2CN1C(=O)[C@H](C1CCCC1)NC(=O)O[C@@H]1CCC[C@H]1CC/C=C/Cc1c(nc3ccccc3c1OCC(F)(F)CO)O2)C(=O)NS(=O)(=O)C1CC1" ?
2.5 nM

Would you kindly share the measured Ki for "C=C[C@@H]1C[C@]1(NC(=O)[C@@H]1C[C@@H]2CN1C(=O)[C@H](C1CCCCC1)NC(=O)O[C@@H]1C[C@H]1CCCCCc1c(nc3ccccc3c1CN1CCN(C)CC1)O2)C(=O)NS(=O)(=O)C1(C)CC1" ?
7.5 nM

Fill blank: measured Ki of the compound "C=C[C@@H]1C[C@]1(NC(=O)[C@@H]1C[C@@H]2CN1C(=O)[C@H](C(C)(C)C)NC(=O)O[C@@H]1CCC[C@H]1CCCCCc1c(nc3ccccc3c1OCCCN(C)C)O2)C(=O)NS(=O)(=O)C1(COC)CC1" is ____.
73 nM

Quick one: Ki of "C=C[C@@H]1C[C@]1(NC(=O)[C@@H]1C[C@@H]2CN1C(=O)[C@H](C(C)(C)C)NC(=O)O[C@@H]1CCC[C@H]1CCCCCc1c(nc3ccccc3c1OCCN1CCOCC1)O2)C(=O)NS(=O)(=O)N1CCCC1" ?
122 nM

What does the data say about its Ki? Entry: C=CC1C[C@]1(NC(=O)[C@@H]1C[C@@H]2CN1C(=O)[C@H](C(C)(C)C)NC(=O)O[C@@H]1CCC[C@H]1CCCCCc1c(nc3ccccc3c1OCCN1CCOCC1)O2)C(=O)NS(=O)(=O)C1(C(=C)C)CC1 (some centres unmarked)
85 nM

What measured Ki goes with C=CC1C[C@]1(NC(=O)[C@@H]1C[C@@H]2CN1C(=O)[C@H](C1CCCC1)NC(=O)O[C@@H]1CCC[C@H]1CC/C=C/Cc1c(nc3ccccc3c1OCCN1CCCCC1)O2)C(=O)NS(=O)(=O)C1CC1 (some centres unmarked) ?
4.6 nM

Please give the measured Ki for this compound: "C=C[C@@H]1C[C@]1(NC(=O)[C@@H]1C[C@@H]2CN1C(=O)[C@H](C(C)(C)C)NC(=O)O[C@@H]1C[C@H]1CCCCCc1c(nc3ccccc3c1OC1CCN(C)CC1)O2)C(=O)NS(=O)(=O)C1(C)CC1"
0.29 nM
